# Ratio listing for each entry below
Target: Cholinesterases; ACHE & BCHE (Homo sapiens) (UniProt P06276+P22303)
Sequence (P06276 whole entry, looked up): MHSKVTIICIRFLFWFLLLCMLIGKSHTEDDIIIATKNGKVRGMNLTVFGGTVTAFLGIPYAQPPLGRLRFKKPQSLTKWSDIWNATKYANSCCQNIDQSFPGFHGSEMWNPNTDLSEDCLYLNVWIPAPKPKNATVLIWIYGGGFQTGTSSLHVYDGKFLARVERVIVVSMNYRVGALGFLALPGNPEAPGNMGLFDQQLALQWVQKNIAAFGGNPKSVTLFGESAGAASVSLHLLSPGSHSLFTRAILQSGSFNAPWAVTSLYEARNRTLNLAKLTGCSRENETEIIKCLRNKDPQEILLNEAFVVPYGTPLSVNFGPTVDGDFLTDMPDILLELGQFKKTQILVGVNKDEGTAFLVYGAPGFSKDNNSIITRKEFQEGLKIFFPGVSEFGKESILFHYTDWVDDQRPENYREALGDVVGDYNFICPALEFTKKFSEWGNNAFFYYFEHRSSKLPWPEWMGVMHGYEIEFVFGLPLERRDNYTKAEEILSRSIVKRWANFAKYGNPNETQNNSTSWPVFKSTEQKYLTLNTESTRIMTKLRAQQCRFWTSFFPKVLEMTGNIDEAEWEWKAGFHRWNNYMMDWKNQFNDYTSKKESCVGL
Sequence (P22303 whole entry, looked up): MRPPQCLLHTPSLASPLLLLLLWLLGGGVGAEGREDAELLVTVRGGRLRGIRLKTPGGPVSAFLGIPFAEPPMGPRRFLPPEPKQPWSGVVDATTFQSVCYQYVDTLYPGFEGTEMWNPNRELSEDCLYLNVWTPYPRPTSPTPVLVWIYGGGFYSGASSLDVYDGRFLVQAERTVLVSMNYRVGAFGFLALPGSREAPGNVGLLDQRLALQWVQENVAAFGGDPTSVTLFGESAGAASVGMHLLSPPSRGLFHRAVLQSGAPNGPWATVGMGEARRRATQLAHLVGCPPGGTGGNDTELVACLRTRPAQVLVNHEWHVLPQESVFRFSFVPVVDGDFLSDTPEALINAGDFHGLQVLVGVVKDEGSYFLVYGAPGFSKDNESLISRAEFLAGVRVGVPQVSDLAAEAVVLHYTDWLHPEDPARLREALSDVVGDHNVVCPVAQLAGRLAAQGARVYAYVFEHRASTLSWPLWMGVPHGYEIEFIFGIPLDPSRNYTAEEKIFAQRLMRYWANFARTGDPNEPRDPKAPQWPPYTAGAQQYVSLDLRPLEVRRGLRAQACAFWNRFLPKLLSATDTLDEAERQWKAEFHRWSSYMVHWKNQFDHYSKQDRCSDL
Experiment: Ratio of IC50 for human BuChE and AChE
Format: protein assay
measured quantity: Ratio

[[record]]
molecular_string = "CNC(=O)Oc1cccc(CN(C)CCCOc2ccc3c(c2)O/C(=C\\c2cccc4ccccc24)C3=O)c1"
recorded_number = 6.45

[[record]]
molecular_string = "CN(CCCCCCCOc1ccc2c(c1)O/C(=C\\c1cccc3ccccc13)C2=O)Cc1cccc(O)c1"
recorded_number = 0.09

[[record]]
molecular_string = "CNC(=O)Oc1cccc(CN(C)CCCCCCCOc2ccc3c(c2)OCC3=O)c1"
recorded_number = 7.08

[[record]]
molecular_string = "CNC(=O)Oc1cccc(CN(C)CCCOc2ccc3c(c2)O/C(=C\\c2cc(OC)c(OC)c(OC)c2)C3=O)c1"
recorded_number = 51.8

[[record]]
molecular_string = "CNC(=O)Oc1cccc(CN(C)CCCCCCCOc2ccc3c(c2)O/C(=C\\c2cc(Cl)cc(Cl)c2)C3=O)c1"
recorded_number = 2.91

[[record]]
molecular_string = "CNC(=O)Oc1cccc(CN(C)CCCOc2ccc3c(c2)O/C(=C\\c2ccc4ccccc4c2)C3=O)c1"
recorded_number = 20.6

[[record]]
molecular_string = "CNC(=O)Oc1cccc(CN(C)CCCCCCCOc2ccc3c(c2)C/C(=C\\c2cc(OC)c(OC)c(OC)c2)C3=O)c1"
recorded_number = 45.2

[[record]]
molecular_string = "CNC(=O)Oc1cccc(CN(C)CCCCCCCOc2ccc3c(c2)OC/C(=C\\c2cc(OC)c(OC)c(OC)c2)C3=O)c1"
recorded_number = 15.6


====

Target: Acetylcholinesterase (Homo sapiens, UniProt P22303)
Sequence (P22303 whole entry): as the sequence (P22303 whole entry, looked up) above
Test: Inhibition of recombinant human AChE
pIC50: −log10 of the molar value.
# pIC50 listing for each entry below
measured quantity: pIC50

[[record]]
molecular_string = "CNC(=O)Oc1cccc(CN(C)CCCCCCCOc2ccc3c(c2)O/C(=C\\c2ccccc2)C3=O)c1"
recorded_number = 8.71

[[record]]
molecular_string = "CNC(=O)Oc1cccc(CN(C)CCCOc2ccc3c(c2)O/C(=C\\c2ccc4ccccc4c2)C3=O)c1"
recorded_number = 8.47

[[record]]
molecular_string = "CNC(=O)Oc1cccc(CN(C)CCCCCCCOc2ccc3c(c2)O/C(=C\\c2cc(Cl)cc(Cl)c2)C3=O)c1"
recorded_number = 7.35

[[record]]
molecular_string = "CNC(=O)Oc1cccc(CN(C)CCCCCCCOc2ccc3c(c2)C/C(=C\\c2cc(OC)c(OC)c(OC)c2)C3=O)c1"
recorded_number = 8.74


====

Molecular target: Cholinesterase (Homo sapiens, UniProt P06276)
Assay: Inhibition of isolated human BuChE
Binary call on IC50 with cut-off 80 nM: strictly below means Criterion met, and equality or higher means Criterion not met.

[[record]]
molecular_string = "CNC(=O)Oc1cccc(CN(C)CCCCCCCOc2ccc3c(c2)CC/C(=C\\c2cc(OC)c(OC)c(OC)c2)C3=O)c1"
assay_system = "Cholinesterase (Homo sapiens, UniProt P06276)"
cat = "Criterion not met"

[[record]]
molecular_string = "CNC(=O)Oc1cccc(CN(C)CCCCCCCOc2ccc3c(c2)O/C(=C\\c2cc(OC)c(OC)c(OC)c2)C3=O)c1"
assay_system = "Cholinesterase (Homo sapiens, UniProt P06276)"
cat = "Criterion not met"

[[record]]
molecular_string = "CNC(=O)Oc1cccc(CN(C)CCCOc2ccc3c(c2)O/C(=C\\c2cccc4ccccc24)C3=O)c1"
assay_system = "Cholinesterase (Homo sapiens, UniProt P06276)"
cat = "Criterion met"

[[record]]
molecular_string = "CNC(=O)Oc1cccc(CN(C)CCCCCCCOc2ccc3c(c2)OCC3=O)c1"
assay_system = "Cholinesterase (Homo sapiens, UniProt P06276)"
cat = "Criterion not met"

